Tested on: Toxoplasma gondii RH (in HFF)
Assay: parasite growth relative to the screen mean (all compounds = 100%); higher = less inhibition of parasite growth
Conditions: 5 µM; 72 h; oxygen 21 %
Structures can show the parent of a compound that is named as a salt.
measured.metric: parasite growth

Recorded results for 3 compounds are shown here.
compound	parasite growth
Cn1cccc1/C=C1\C(=O)NC(=O)c2ccccc21	121%
COC(=O)C1=C(C)NC(C)=C([N+](=O)[O-])C1c1ccccc1C(F)(F)F (racemic)	167%
OCCN(CCO)c1nc(N2CCCCC2)c2nc(N(CCO)CCO)nc(N3CCCCC3)c2n1	142%

Request: I am curious: what parasite growth value has been reported for O=C(O)c1ccccc1Nc1cccc(OCc2ccc3ccccc3n2)c1 [SR 2640 hydrochloride] ?
Response: 135%

Request: Do the same for `CCCCc1nn(-c2ccccc2C(F)(F)F)c(=O)n1Cc1ccc(-c2ccccc2S(=O)(=O)NC(=O)c2sccc2C)cc1` please
Response: 137%

Request: Do the same for `Nc1c(S(=O)(=O)O)cc(Nc2cccc3ccccc23)c2c1C(=O)c1ccccc1C2=O` please
Response: 172%

---

Tested on: Toxoplasma gondii RH (in HFF)
Assay: parasite growth relative to the screen mean (all compounds = 100%); higher = less inhibition of parasite growth
Details: 5 µM; 72 h; oxygen 21 %
Counter-ions that a name gives are not always drawn.
measured.metric: parasite growth (%)
Could you give me the number in %? Just the number is fine.

Recorded results for 2 molecules are shown here.
molecule	measured.metric	measured.number
CN1CCc2cc(Cl)c(O)cc2[C@@H](c2ccccc2)C1	parasite growth	120
COc1ccc2[nH]cc(CCNC(C)=O)c2c1	parasite growth	84.8

Request: I am curious: what parasite growth value has been reported for `COc1cccc(NC(=O)/C=C/c2ccc(Cl)cc2)c1` ?
Response: 136

Request: Do the same for `Cc1cc(F)c(Nc2ncnc3cc(OCc4ccccc4)ccc23)cc1O` please
Response: 11.2

Request: Do the same for `COC(=O)c1sccc1S(=O)(=O)Nc1ccc(Nc2ccccc2)cc1OC` please
Response: 64

Request: Do the same for C1CCC2(CC1)CCNCC2 [4,4-Pentamethylenepiperidine hydrochloride] please
Response: 107

Request: Do the same for `CCn1c(=O)n(C2=C(CO)CN(CC3CCCCCCC3)CC2)c2ccccc21` please
Response: 174

Request: Do the same for C[C@@H]1CN(CCCn2c3ccccc3c3ccccc32)C[C@H](C)N1 [Rimcazole dihydrochloride] please
Response: 31.8

Request: Do the same for `COc1cc(N)c(Cl)cc1C(=O)OCCCN1CCCCC1` please
Response: 109

---

Tested on: Toxoplasma gondii RH (in HFF)
Test: parasite growth relative to the screen mean (all compounds = 100%); higher = less inhibition of parasite growth
Conditions: 5 µM; 72 h; oxygen 21 %
Structures can show the parent of a compound that is named as a salt.
measured.metric: parasite growth (%)
Could you give me the number in %? Just the number is fine.

Recorded results for 4 molecules are shown here.
molecule	measured.metric	result.units	measured.number
COC(=O)Nc1ccc2[nH]cc(CCNC(C)=O)c2c1	parasite growth	%	81
COc1ccc(NS(=O)(=O)c2ccc(I)cc2)cc1N1CCN(C)CC1	parasite growth	%	122
O=C(O)C1CCCN(CCC=C(c2ccccc2)c2ccccc2)C1 (stereo not given)	parasite growth	%	122
CCOC(=O)c1cnc2c(cnn2CC)c1NN=C(C)C [Etazolate hydrochloride]	parasite growth	%	127

Proceeding to the next molecule to report its parasite growth.
Request: I am curious: what parasite growth value has been reported for CC(C)NCC(O)COc1ccccc1-n1cccc1 (stereo not given) [Isamoltane hemifumarate] ?
Response: 97
